Listed here: items and their measured IC50.
- Target: PolQ ATPase enzyme (1-894) (Homo sapiens (Human), UniProt O75417)
- Sequence (O75417 1-894): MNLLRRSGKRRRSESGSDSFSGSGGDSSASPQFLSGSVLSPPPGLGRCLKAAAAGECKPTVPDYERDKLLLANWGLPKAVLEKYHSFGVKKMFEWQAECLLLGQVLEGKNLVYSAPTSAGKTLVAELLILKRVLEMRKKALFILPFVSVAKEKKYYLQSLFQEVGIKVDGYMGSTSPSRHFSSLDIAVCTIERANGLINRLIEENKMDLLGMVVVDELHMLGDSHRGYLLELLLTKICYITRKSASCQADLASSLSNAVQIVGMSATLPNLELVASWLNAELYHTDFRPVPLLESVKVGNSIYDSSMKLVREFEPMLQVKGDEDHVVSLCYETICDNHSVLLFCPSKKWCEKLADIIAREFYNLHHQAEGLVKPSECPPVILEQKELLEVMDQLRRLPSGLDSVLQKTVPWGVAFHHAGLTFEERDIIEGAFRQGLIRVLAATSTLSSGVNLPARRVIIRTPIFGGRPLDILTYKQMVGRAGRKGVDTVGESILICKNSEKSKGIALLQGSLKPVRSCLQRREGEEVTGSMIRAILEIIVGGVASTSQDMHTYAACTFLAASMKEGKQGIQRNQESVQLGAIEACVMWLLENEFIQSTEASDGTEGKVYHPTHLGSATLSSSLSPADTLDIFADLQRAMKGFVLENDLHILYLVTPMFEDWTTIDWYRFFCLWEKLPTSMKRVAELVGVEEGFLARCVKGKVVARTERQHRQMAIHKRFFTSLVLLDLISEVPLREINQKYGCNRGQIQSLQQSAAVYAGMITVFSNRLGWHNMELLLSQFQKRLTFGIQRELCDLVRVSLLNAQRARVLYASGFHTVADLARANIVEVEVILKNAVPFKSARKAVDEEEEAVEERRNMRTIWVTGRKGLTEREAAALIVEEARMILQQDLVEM
- Assay Summary: Polθ ATPase enzymatic assay (0.5 nM enzyme concentration), ADP-Glo
- Assay type: biochemical
- Condition Info: average IC50; 0.5 nM PolQ ATPase enzyme (1-894)
The response must be a number in nM with no trailing unit.

Worked examples, 2 molecules total:
# Smiles, IC50 [nM]
rows = [
    ("COc1cnc(C(F)F)cc1-c1cc(N2CCC(C)(C)CC2=O)ncc1C(=O)Nc1nnc(C#CC2CC2)s1", 0.49),
    ("COc1cnc(C(F)F)cc1-c1cc(-n2cc(N)c(C)cc2=O)ncc1C(=O)Nc1nnc(C#CC2CC2)s1", 1.1),
]

Request: Specify measured IC50 for COc1cnc(C(F)(F)F)cc1-c1cnccc1C(=O)Nc1nnc(C#CC2CC2)s1 .
Response: 2.3

----------
# maps each entry to its IC50
- Target: PolQ ATPase enzyme (1-894) (Homo sapiens (Human))
- Assay Summary: Polθ ATPase enzymatic assay (0.5 nM enzyme concentration), ADP-Glo
- Type: biochemical
- Condition Info: average IC50; 0.5 nM PolQ ATPase enzyme (1-894)
# value in nM; strip the unit string

# Compound, Experimental Result
data = [
    ("Cc1cc(C#Cc2nnc(NC(=O)c3ccncc3-c3cc(F)ccc3Cl)s2)n[nH]1 [Compound 29]", 0.6),
]

Request: Report IC50 under test system PolQ ATPase enzyme (1-894) (Homo sapiens (Human)) for COc1cnc(C(F)F)cc1-c1cc(N2CCN(C(C)=O)CC2=O)ccc1C(=O)Nc1nnc(C#CC2CC2)s1 [Compound 137] .
Response: 0.26

----------
- Target: PolQ ATPase enzyme (1-894) (Homo sapiens (Human), UniProt O75417)
- Assay Summary: Polθ ATPase enzymatic assay (0.5 nM enzyme concentration), ADP-Glo
- Type: biochemical
- Condition Info: average IC50; 0.5 nM PolQ ATPase enzyme (1-894)
Assay Readout: IC50 (nM)
Give the value in nM but do not write nM after it.

Some solved cases for reference:
# Smiles, IC50 [nM]
data = [
    ("COc1cnc(C(F)F)cc1-c1cc(-c2cn(C)c(C)n2)ccc1C(=O)Nc1nnc(C#CC2CC2)s1", 0.25),
    ("CCc1nn(C)cc1-c1cc(-c2ccn(C)n2)ncc1C(=O)Nc1nnc(C#CC2CC2)s1", 6.2),
    ("COc1cnc(C(F)F)cc1-c1cc(C(=O)N2CCOCC2)ccc1C(=O)Nc1nnc(C#CC2CC2)s1", 1.7),
]

Kindly review the next compound as well.
Request: Identify measured IC50 obtained with PolQ ATPase enzyme (1-894) (Homo sapiens (Human), UniProt O75417) for COc1ccc(C(F)(F)F)cc1-c1cc(N2CCCC2=O)ncc1C(=O)Nc1nnc(C#CC2CC2)s1 .
Response: 7.3

----------
The entries below are paired with their reported IC50.
- Target: PolQ ATPase enzyme (1-894) (Homo sapiens (Human))
- Assay Summary: Polθ ATPase enzymatic assay (0.5 nM enzyme concentration), ADP-Glo
- Assay type: biochemical
- Condition Info: average IC50; 0.5 nM PolQ ATPase enzyme (1-894)
- Experimental: PolQ ATPase enzyme (1-894) at 0.5 nM is incubated with a 10-point concentration response of inhibitors for 15 min at rt in the following buffer: 50 mM Tris Cl pH 7.5, 10% glycerol, 5 mM DTT, 10 mM MgCl2, 0.1 mg/ml BSA. […] Enzymatic reaction proceeds at rt for 180 min ATP consumption is measured using the ADP-Glo assay from Promega. Luminescence is read on the Envision and IC50 are determined using the variable slope 4-parameters equation. […]

These recorded examples may help you get a feel for the data.
# Compound, IC50
data = [
    ("COc1cnc(Cl)cc1-c1cc(C2(C(=O)N(C)C)CC2)ccc1C(=O)Nc1nnc(C#CC2CC2)s1 [Compound 234]", "34 nM"),
    ("COc1cnc(C(F)F)cc1-c1cc(-n2cccn2)ncc1C(=O)Nc1nnc(C#CC2CC2)s1 [Compound 261]", "0.62 nM"),
    ("COc1cnc(C(F)F)cc1-c1cc(CC(=O)N2CC(F)(F)C2)ncc1C(=O)Nc1nnc(C#CC2CC2)s1 [Compound 446]", "< 0.25 nM"),
]

Request: Please give the documented IC50 of COc1ccc(C(F)(F)F)cc1-c1cnccc1C(=O)Nc1nnc(C2CC2c2ccc(C#N)cc2)s1 (stereo not shown) [Compound 30]
Response: 0.76 nM
